target: Estrogen receptor (Homo sapiens); assay: qHTS assay to identify small molecule antagonists of the estrogen receptor alpha (ER-alpha) signaling pathway using the BG1 cell line in the presence of 0.1 nM 17-beta-estradiol (AID 1259244); conditions: VM7Luc4E2 (BG1) ERE-luciferase, antagonist mode, 0.1 nM E2, 22 h; series mostly up to 92.4 µM; also: nearly all actives have a fitted effect of over 50% in size
Inconclusive results are not listed. Active and inactive are the calls of the source. Calls follow the shape of the dose curve; as a rule, active = well fitted inhibition curve with a large enough effect in the repeat runs; inconclusive = weak or mixed curves; inactive = no such curve, though single readings can be large or run the other way.
Entry note: the call must match one of active, inactive

Worked cases, answers included:
O=[N+]([O-])c1ccc(O/N=C/c2cc(Br)c(O)c(Br)c2)c([N+](=O)[O-])c1
active
FC(F)(F)c1ccccc1Cl
inactive
CCn1cc(C(=O)O)c(=O)c2cc(F)c(N3CCNCC3)cc21
inactive
Clc1ccc(Nc2nnc(Cc3ccncc3)c3ccccc23)cc1
active

## Task Hello, I am checking results. What call was entered for CCc1ccccc1 ?
## Result inactive
